Provide the reported melting point of each item.

Prompt: Which melting point value is on record for NC(=S)COc1ccccc1 ?
Completion: 111 to 115 °C

Prompt: Please answer likewise for O=C(O)c1ccc(N2CCCC2)c(F)c1
Completion: 269 to 271 °C

Prompt: Please answer likewise for O=C(O)c1cn(-c2ccccc2)nc1-c1cccs1
Completion: 197 to 199 °C

Prompt: Please answer likewise for N=C1NS(=O)(=O)Cc2ccccc21
Completion: 264 to 266 °C

Prompt: Please answer likewise for O=C(O)C1Cc2ccccc2CN1C(=O)CCl (stereo unspecified)
Completion: 153 to 155 °C

Prompt: Please answer likewise for CCOC(=O)c1ccc(Br)c(S(=O)(=O)Cl)c1
Completion: 93 to 95 °C

Prompt: Please answer likewise for Brc1cccc(-c2ncc[nH]2)c1
Completion: 129 to 131 °C

Prompt: Please answer likewise for COc1ccc2c(c1)-c1sc(N)nc1CC2
Completion: 179 to 181 °C

Prompt: Please answer likewise for CCOc1ccc(C(=O)NCC(=O)O)cc1
Completion: 154 to 156 °C

Prompt: Please answer likewise for COc1ccc(-c2nnn(CC(=O)O)n2)cc1OC
Completion: 259 to 261 °C

Prompt: Please answer likewise for Cc1cccc2[nH]c(CO)cc12
Completion: 71 to 73 °C

Prompt: Please answer likewise for O=[N+]([O-])c1cccc(-c2cnc(CCCl)o2)c1
Completion: 73 to 75 °C

Prompt: Please answer likewise for O=C(O)c1cc2c([nH]1)CCC2
Completion: 109 to 111 °C

Prompt: Please answer likewise for c1ccc(Nc2ncccn2)cc1
Completion: 107 to 109 °C

Prompt: Please answer likewise for Cc1cc(C)c(N)c(Cl)n1
Completion: 56 to 58 °C

Prompt: Please answer likewise for Cc1cc(-c2csc(N)n2)c(C)s1
Completion: 72 to 74 °C

Prompt: Please answer likewise for CCOC(=O)c1cc(C)cc(Br)c1N
Completion: 44 to 46 °C

Prompt: Please answer likewise for Cc1ccc(NC(=O)C2CCNCC2)nc1
Completion: 145 to 147 °C

Prompt: Please answer likewise for O=S(=O)(Nc1nccs1)c1ccccc1
Completion: 169 to 171 °C

Prompt: Please answer likewise for COC(=O)c1c[nH]c(=O)c(N)c1
Completion: 209 to 211 °C

Prompt: Please answer likewise for O=C1NC(=O)C(CCS)N1 (stereo unspecified)
Completion: 133 to 135 °C

Prompt: Please answer likewise for CC(C)NC(=O)c1ccc(Cl)c(N)c1
Completion: 131 to 133 °C

Prompt: Please answer likewise for Nc1ccc(N2CCCC2)c(S(=O)(=O)Nc2cccc(C(F)(F)F)c2)c1
Completion: 151 to 153 °C

Prompt: Please answer likewise for CCOc1ccc(-c2nn(-c3ccccc3)cc2C=O)cc1Cl
Completion: 100 to 102 °C

Prompt: Please answer likewise for CCOc1cc(C=O)ccc1OCc1c(F)cccc1Cl
Completion: 111 to 113 °C

Prompt: Please answer likewise for CCCc1c(C(=O)O)cnn1-c1cccc(F)c1
Completion: 97 to 99 °C

Prompt: Please answer likewise for Cc1ccc(-c2ccc(C=O)s2)cc1
Completion: 87 to 89 °C

Prompt: Please answer likewise for COc1ccc(C(=O)O)cc1S(=O)(=O)NC1CCCCC1C (stereo unspecified)
Completion: 201 to 203 °C

Prompt: Please answer likewise for O=C(Nc1ccncc1)OCC(F)(F)F
Completion: 193 to 195 °C

Prompt: Please answer likewise for NNc1ccc(S(=O)(=O)Nc2ccc(Cl)cc2)cc1[N+](=O)[O-]
Completion: 187 to 189 °C

Prompt: Please answer likewise for CN1C(=O)CC(C(N)=O)C1c1cccc(Cl)c1 (stereo unspecified)
Completion: 188 to 190 °C

Prompt: Please answer likewise for Clc1ccc2cc(Br)ccc2n1
Completion: 159 to 161 °C

Prompt: Please answer likewise for COC(=O)c1ccc(S)cc1
Completion: 53 to 55 °C

Prompt: Please answer likewise for Cc1oc(C)c(C(=O)O)c1Br
Completion: 189 to 191 °C

Prompt: Please answer likewise for Cc1cc(O)cc(C(C)C)c1
Completion: 49 to 51 °C

Prompt: Please answer likewise for CCc1cccc2c(C3CCNCC3)c[nH]c12
Completion: 183 to 185 °C

Prompt: Please answer likewise for O=C(CN1CCNCC1)NC1CCCCC1
Completion: 99 to 101 °C

Prompt: Please answer likewise for Cc1nn(-c2ccccc2)c2sc(C(=O)O)cc12
Completion: 234 to 236 °C

Prompt: Please answer likewise for Nc1cc(F)ccc1NC(=O)c1ccccn1
Completion: 101 to 103 °C

Prompt: Please answer likewise for COc1ccc2c(c1)CCCC2CC(=O)O (stereo unspecified)
Completion: 84 to 86 °C

Prompt: Please answer likewise for Cc1n[nH]c(C)c1CC(C)C(=O)O (stereo unspecified)
Completion: 170 to 172 °C

Prompt: Please answer likewise for CS(=O)(=O)NCc1cccc(CN)c1
Completion: 70 to 72 °C

Prompt: Please answer likewise for O=C(O)C1CCCCN1S(=O)(=O)c1ccc(Br)s1 (stereo unspecified)
Completion: 125 to 127 °C

Prompt: Please answer likewise for O=C(O)CCc1nc2ccccc2o1
Completion: 110 to 112 °C

Prompt: Please answer likewise for Cc1cc(NC(N)=S)n(C)n1
Completion: 218 to 220 °C

Prompt: Please answer likewise for CCOc1cc(Br)c(CC#N)cc1OCC
Completion: 68 to 70 °C

Prompt: Please answer likewise for CCOc1ccccc1-c1nnc(S)n1N
Completion: 153 to 155 °C

Prompt: Please answer likewise for O=c1[nH]nnc2sc3c(c12)CCCC3
Completion: 185 to 187 °C

Prompt: Please answer likewise for CCCc1[nH]c2ccccc2c1CC
Completion: 43 to 45 °C

Prompt: Please answer likewise for S=C(Nc1ccccc1)N1CCCCC1
Completion: 99 to 101 °C

Prompt: Please answer likewise for O=C1NC(=O)N(CCC2=CCCCC2)C1=O
Completion: 127 to 129 °C

Prompt: Please answer likewise for Clc1ccc(-n2cccn2)c(Cl)c1
Completion: 34 to 36 °C

Prompt: Please answer likewise for CC(C)(C)OC(=O)N1CCc2[nH]c(=O)c(C#N)cc2C1
Completion: 239 to 241 °C

Prompt: Please answer likewise for Nc1cccc(OCC(=O)Nc2ccccc2)c1
Completion: 120 to 122 °C

Prompt: Please answer likewise for NC(=O)C1NCCc2ccccc21 (stereo unspecified)
Completion: 180 to 182 °C

Prompt: Please answer likewise for O=C(C=NO)Nc1ccc2c(c1)OCCO2
Completion: 130 to 132 °C
